measurement_notes: Stability tests of analytes in rat plasma QC samples
Format: in vitro ADME
experimental_setup: rat plasma, nominal conc. 20 nM
Property: Three freeze-thaw cycles (-80 °C ↔ 23 °C), Mean±SD; scope: individual compounds
Enter your answer as a number in nM; do not include the unit.

CC(C)=CCC[C@](C)(O)[C@H]1CC[C@]2(C)[C@@H]1[C@H](O)C[C@@H]1[C@@]3(C)CC[C@H](O)C(C)(C)[C@@H]3[C@@H](O[C@@H]3O[C@H](CO)[C@@H](O)[C@H](O)[C@H]3O[C@@H]3O[C@H](CO)[C@@H](O)[C@H](O)[C@H]3O)C[C@]12C [Compound C7, Ginsenoside Rf] | 22.07

As a next step, examine the compound that follows.
Query :: Three freeze-thaw cycles (-80 °C ↔ 23 °C), Mean±SD lookup needed for CC(C)=CCC[C@](C)(O[C@@H]1O[C@H](CO[C@@H]2O[C@@H](CO)[C@H](O)[C@H]2O)[C@@H](O)[C@H](O)[C@H]1O)[C@H]1CC[C@]2(C)[C@@H]1[C@H](O)C[C@@H]1[C@@]3(C)CC[C@H](O[C@@H]4O[C@H](CO)[C@@H](O)[C@H](O)[C@H]4O[C@@H]4O[C@H](CO)[C@@H](O)[C@H](O)[C@H]4O)C(C)(C)[C@@H]3CC[C@]12C [Compound D3, Ginsenoside Rc] , thanks.
Result :: 22.31
